# subject.of.test: T1, hFc-hFasL (fusion protein of human Fc fragment and human FasL extracellular region) (human, UniProt P48023 134-281)
# T1 sequence: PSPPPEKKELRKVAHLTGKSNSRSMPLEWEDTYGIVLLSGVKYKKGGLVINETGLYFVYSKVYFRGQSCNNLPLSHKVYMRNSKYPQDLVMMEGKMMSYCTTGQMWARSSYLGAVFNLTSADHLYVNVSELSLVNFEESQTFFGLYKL
# assay.procedure: cell-based or functional assay
endpoint.label: IC50(nM), FasL antigen-induced apoptosis of Jurkat cells (CellTiter-Glo ATP)
Unit nM implied. Number only.

// solved cases for IC50(nM), FasL antigen-induced apoptosis of Jurkat cells (CellTiter-Glo ATP) follow
INSERT INTO measurements (binder, endpoint_value) VALUES
  ('FL-M78 (antibody, V domains shown, Chimeric full-length antibody, tested as human IgG4 / human kappa) VH: DVQLQESGGGLVQPGGSRKLSCAASGFTFSSYDMSWVRQTPEKRLEWVAFISSGGGSTYYPDTVKGRFTISRDNAKNTLYLQMSSLKSEDSAMYYCGRHYDNYLYAMDYWGQGTSVTVSS VL: DIVMTQSPASQSASLGESVTITCLASQTIGTWLAWYQQKPGKSPQLLIYAATSLADGVPSRFSGSGSGTKFSFKISSLQAEDFVSYYCQQLYSTPFTFGGGTKLEIK', 0.023),
  ('FL-M89 (antibody, V domains shown, Chimeric full-length antibody, tested as human IgG4 / human kappa) VH: EVQLQQSGAELVRPGVSVKISCKGSGYTFTDYTIHWVKQSHAKSLEWIGVISTYQGDASYNQKFKGKATMTVDKSSSTAYMELARLTSEDSAIYYCARFPDWDYAMDYWGQGTSVTVSS VL: DIVMTQSPASLAVSLGQRATISCKASQSVDYDGDSYMNWYQQKPGQPPKLLIYAASNLESGIPARFSGSGSGTDFTLNIHPVEEEDAATYYCQQSRELPYTFGGGTKLEIK', 0.023);

# ---- query binder ----
GET /values?readout=IC50(nM), FasL antigen-induced apoptosis of Jurkat cells (CellTiter-Glo ATP)&item= FL-M54 (antibody, V domains shown, Chimeric full-length antibody, tested as human IgG4 / human kappa) VH: EVQLQQSGVELVKPGASVKLSCKASGYTFTRFDISWVRQRPEQGLEWIGWIFPGDGSSQYNENFKGKATLTTDKSSGTAYMQLNRLTSEDSAVYFCARSLISTAMFDHWGQGTTLTVSS VL: DIVMTQSPASLAVSLGQRATISCRASKSVSTSDFSYIHWYQQKPGQPPKLLIFLASHLESGVPARFSGSGSGTDFTLNIHPVEEEDAATYYCQHSRELPRTFGGGTKLEIK
0.018

Hello, the source for this data is patent US20250101120A1, in case you need it.
